# System: SF-295
# ASSAY_PROTOCOL: NCI tumour cell line growth inhibition, 48 h
Activity calls are given as the source filed them. Rule as the data show it: active = GI50 up to about 1.1 µM and inactive = higher.
EXPERIMENTAL_READOUT: GI50

• CC1(C)C(=NNC(=O)C[N+](C)(C)C)C(C)(C)C1=NNC(=O)C[N+](C)(C)C = > 100 µM (inactive)
• CC(C(O)Cc1ccccc1)N(C)/N=N/c1ccc([N+](=O)[O-])cc1 (stereo not given) = 19.8 µM (inactive)
• CN(C)c1ccc(/C=N/c2ccc(-c3nc4ccccc4[nH]3)cc2)cc1 = 46.6 µM (inactive)
• C=C1CN2CC(=C)CN(C1)CS(=O)(=O)N1CC(=C)CN(CC(=C)C1)S(=O)(=O)N1CC(=C)CN(CC(=C)C1)S(=O)(=O)C2 = 31.9 µM (inactive)
• Cc1cc(C#N)c[n+](C)c1 = > 100 µM (inactive)
• CCOC(=O)c1nc2cc(C(F)(F)F)ccc2nc1Oc1ccc(C#N)cc1 = > 100 µM (inactive)
• O=C1CC(O)C=C1Nc1ccc(Cl)cc1 (stereo not given) = 33.1 µM (inactive)
• CCCCNS(=O)(=O)c1n[nH]c(=O)[nH]c1=O = 16.9 µM (inactive)
• CC1(C)C(=O)/C=C\C(=O)C(C)(C)C(=O)/C=C\C(=O)C(C)(C)C2=CC=C(O2)C(C)(C)C(=O)/C=C\C1=O = 17.3 µM (inactive)
• COc1cc(C2SC(=N)Nc3c2c(C)nn3C(=O)c2ccc(Cl)cc2)ccc1O (stereo not given) = > 10 µM (inactive)
